Known IC50 of a selection of compounds
Biological target: CDK2 (Homo sapiens, UniProt P24941)
Construct: High-Throughput Measurement of Cellular Endogenous CDK2; endogenous in cells; host or cells: OVCAR3
Assay: Inhibition of CDK2: phospho-Rb (S807/811) HTRF measurement in OVCAR3 cells
Assay type: cell-based
Details: 24 h compound treatment, HTRF phospho-RB S807/811, read-out: pRb OVCAR3 (μM), CDK2 IC50 in pRB(S807/811) assay

- Compound: "Cn1nc(N2CCC(=O)NC2=O)c2ccc(C3CCN(Cc4cccc(S(=O)(=O)N5CC[C@H](Nc6ncc7ccc(=O)n(CC(F)(F)F)c7n6)[C@H](F)C5)c4)CC3)cc21 (racemic)"
  Measured Quantity: "IC50"
  Result: "1 to 10 µM"

Continue with the compound presented below.
Task: Enter reported IC50 observed with CDK2 (Homo sapiens, UniProt P24941) for Cn1nc(N2CCC(=O)NC2=O)c2ccc(C3CCN(Cc4cccc(S(=O)(=O)N5CC[C@H](Nc6ncc7ccc(=O)n(C)c7n6)[C@H](F)C5)c4)CC3)cc21 (racemic)
Result: 0.1 to 1 µM
